Values were extracted from the supplement of paper PMC10567573.

B1: TFE3 (parent)
chain: FHLGLEDILMEEEEGVVGGLSGGA

Variants of: B1
measurement-notes: protein stability index of a GFP-peptide fusion (GPS, HEK-293T) (PSI 1-6); higher = more stable;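 further: lentivirally expressed fusions sorted by FACS into six bins by GFP to DsRed ratio, PSI derived from sequencing read proportions per bin multiplied by bin number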
recorded-conditions: c terminus: a fixed tail appended
Rule: protein stability index under 3 gives FALSE, otherwise TRUE.

Given the entry "H2L" , answer whether its protein stability index meets or surpasses 3.
TRUE

How about "G19W" ?
FALSE

Now consider "E14D" .
TRUE

Also "L3C" , if possible.
FALSE

Now the variant "M10D"
TRUE

Another variant to look at: "G4K"
FALSE

Proceed to "E11W"
FALSE

// repeat for "D7S" and report
TRUE
